# pEC50 values compiled below
- Tested on: Human immunodeficiency virus 1
- method: Antiviral activity against Human immunodeficiency virus 1 isolate M1 expressing protease L10I, M46I, I64V, I84V, L90M, I93L mutant infected in human MT4 cells
- Type: functional, organism-based
- protocol-conditions: Human immunodeficiency virus 1, isolate M1, MT4
Worth noting: pEC50 values are minus log10 of concentrations stated in mol/L.

CNc1nc2ccc(S(=O)(=O)N(CC(C)C)C[C@@H](O)[C@H](Cc3ccccc3)NC(=O)O[C@H]3CO[C@H]4OC[C@H](OCSC)[C@H]43)cc2o1 : 8.41

[Q] Request - read-out pEC50 | tested on Human immunodeficiency virus 1 | compound CNc1nc2ccc(S(=O)(=O)N(CC(C)C)C[C@@H](O)[C@H](Cc3ccccc3)NC(=O)O[C@H]3CO[C@H]4OC[C@H](OCc5ccccc5F)[C@H]43)cc2o1
[A] 8.89

[Q] Repeat with CNc1nc2ccc(S(=O)(=O)N(CC(C)C)C[C@@H](O)[C@H](Cc3ccccc3)NC(=O)O[C@H]3CO[C@H]4OCC[C@H]43)cc2o1
[A] 8.57

[Q] Repeat with CC(C)CN(C[C@@H](O)[C@H](Cc1ccccc1)NC(=O)O[C@H]1CO[C@H]2OC[C@H](OCc3ccccc3)[C@H]21)S(=O)(=O)c1ccc(N)cc1
[A] 8.33

[Q] Repeat with CNc1nc2ccc(S(=O)(=O)N(CC(C)C)C[C@@H](O)[C@H](Cc3ccccc3)NC(=O)O[C@H]3CO[C@H]4OC[C@H](OCc5ccc(F)cc5F)[C@H]43)cc2o1
[A] 8.96

[Q] Repeat with COCCO[C@H]1CO[C@@H]2OC[C@H](OC(=O)N[C@@H](Cc3ccccc3)[C@H](O)CN(CC(C)C)S(=O)(=O)c3ccc(N)cc3)[C@@H]21
[A] 7.92

* * *

- System: Human immunodeficiency virus 1
- method: Selectivity index, ratio of EC50 for Human immunodeficiency virus 1 isolate M1 expressing protease L10I, M46I, I64V, I84V, L90M, I93L mutant to EC50 for Human immunodeficiency virus 1 3B expressing wild-type protease
- Type: functional
observable: Ratio EC50
Enter the number alone.

Solved entries (count: 2):
CNc1nc2ccc(S(=O)(=O)N(CC(C)C)C[C@@H](O)[C@H](Cc3ccccc3)NC(=O)O[C@H]3CO[C@H]4OC[C@H](OCSC)[C@H]43)cc2o1 : 3
CC(C)CN(C[C@@H](O)[C@H](Cc1ccccc1)NC(=O)O[C@H]1CO[C@H]2OC[C@H](Oc3ccccc3)[C@H]21)S(=O)(=O)c1ccc(N)cc1 : 3.7

[Q] Reported Ratio EC50 for CC(C)CN(C[C@@H](O)[C@H](Cc1ccccc1)NC(=O)O[C@H]1CO[C@H]2OC[C@H](O)[C@H]21)S(=O)(=O)c1ccc(N)cc1 : what is it?
[A] 0.1

[Q] Repeat with CNc1nc2ccc(S(=O)(=O)N(CC(C)C)C[C@@H](O)[C@H](Cc3ccccc3)NC(=O)O[C@H]3CO[C@H]4OC[C@H](OCc5ccc(F)cc5F)[C@H]43)cc2o1
[A] 2

[Q] Repeat with COCCO[C@H]1CO[C@@H]2OC[C@H](OC(=O)N[C@@H](Cc3ccccc3)[C@H](O)CN(CC(C)C)S(=O)(=O)c3ccc(N)cc3)[C@@H]21
[A] 0.8

[Q] Repeat with COC(=O)N[C@H](C(=O)N[C@@H](Cc1ccccc1)[C@@H](O)CN(Cc1ccc(-c2ccccn2)cc1)NC(=O)[C@@H](NC(=O)OC)C(C)(C)C)C(C)(C)C
[A] 8.4
